Values from ChEMBL document CHEMBL1139312

Exercise: state measured pIC50 for each of the compounds provided.
- System: COLO 205
- Protocol Text: Antiproliferative activity against human COLO205 cells after 24 hrs by MTS assay
- Assay type: functional, cell-based
- Cond: Homo sapiens, COLO 205, 24 h
On this scale, pIC50 is minus log10 of a concentration expressed in M (mol/L).

Inquiry: Given `Fc1cc(F)c(-c2c(Cl)nc(-n3ccnc3)nc2NCC(F)(F)F)c(F)c1` , report its pIC50 on COLO 205.
Reply text: 5.52

Inquiry: Given `Fc1cc(F)c(-c2c(Cl)nc(-c3nccc4ccccc34)nc2NCC(F)(F)F)c(F)c1` , report its pIC50 on COLO 205.
Reply text: 5.33

Inquiry: Given `CN(C)CCCCOc1cc(F)c(-c2c(Cl)nc(-c3cnccn3)nc2NCC(F)(F)F)c(F)c1` , report its pIC50 on COLO 205.
Reply text: 7.49

Inquiry: Given `CC(=O)O[C@H]1C(=O)[C@@]2(C)[C@H]([C@H](OC(=O)c3ccccc3)[C@]3(O)C[C@H](OC(=O)[C@H](O)[C@@H](NC(=O)c4ccccc4)c4ccccc4)C(C)=C1C3(C)C)[C@]1(OC(C)=O)CO[C@@H]1C[C@@H]2O` , report its pIC50 on COLO 205.
Reply text: 8.48

Inquiry: Given `Fc1cc(F)c(-c2c(Cl)nc(-c3cccs3)nc2NCC(F)(F)F)c(F)c1` , report its pIC50 on COLO 205.
Reply text: 5.46

###

- Protocol Text: Bioavailability in rat
- Type: ADME, organism-based
- Cond: in vivo
Attribute Measured: bioavailability (%)
Kindly provide the numeric value in % only, without the unit symbol.

Inquiry: Give bioavailability for `CNCCCOc1cc(F)c(-c2c(Cl)nc(-c3cnccn3)nc2N[C@@H](C)C(F)(F)F)c(F)c1`
Reply text: 100

###

Exercise: state measured pIC50 for each of the compounds provided.
- Test system: COLO 205
- Protocol Text: Antiproliferative activity against human COLO205 cells after 24 hrs by MTS assay
- Type: functional, cell-based
- Cond: Homo sapiens, COLO 205, 24 h
On this scale, pIC50 is minus log10 of a concentration expressed in M (mol/L).

Inquiry: Give pIC50 for `Fc1cc(F)c(-c2c(Cl)nc(-c3ccco3)nc2NCC(F)(F)F)c(F)c1`
Reply text: 6.63

Inquiry: Give pIC50 for `Cn1ccnc1-c1nc(Cl)c(-c2c(F)cc(F)cc2F)c(NCC(F)(F)F)n1`
Reply text: 7.11

Inquiry: Give pIC50 for `C[C@H](Nc1nc(-c2cnccn2)nc(Cl)c1-c1c(F)cc(F)cc1F)C(F)(F)F`
Reply text: 7.29

Inquiry: Give pIC50 for `CN(C)CCCOc1cc(F)c(-c2c(Cl)nc(-c3cnccn3)nc2NCC(F)(F)F)c(F)c1`
Reply text: 7.74

Inquiry: Give pIC50 for `CN(C)CCOc1cc(F)c(-c2c(Cl)nc(-c3cnccn3)nc2NCC(F)(F)F)c(F)c1`
Reply text: 6.89

Inquiry: Give pIC50 for `Fc1cc(F)c(-c2c(Cl)nc(-c3ccc4ccccc4n3)nc2NCC(F)(F)F)c(F)c1`
Reply text: 6.60

Inquiry: Give pIC50 for `CN(C)CCCOc1cc(F)c(-c2c(Cl)nc(-n3ccnc3)nc2NCC(F)(F)F)c(F)c1`
Reply text: 6.17

Inquiry: Give pIC50 for `Fc1cc(F)c(-c2c(Cl)nc(-c3cc4ccccc4cn3)nc2NCC(F)(F)F)c(F)c1`
Reply text: 6.92

Inquiry: Give pIC50 for `Fc1cc(F)c(-c2c(Cl)nc(-c3cnccn3)nc2NCC(F)(F)F)c(F)c1`
Reply text: 7.08

###

- Protocol Text: Antiproliferative activity against human KB 8.5 cells after 3 days by SRB assay
- Type: functional, cell-based
- Cond: 72 h
Attribute Measured: IC50 (nM)
Kindly provide the numeric value in nM only, without the unit symbol.

Inquiry: Give IC50 for `CC[C@]1(O)C[C@H]2CN(CCc3c([nH]c4ccccc34)[C@@](C(=O)OC)(c3cc4c(cc3OC)N(C=O)[C@H]3[C@@](O)(C(=O)OC)[C@H](OC(C)=O)[C@]5(CC)C=CCN6CC[C@]43[C@@H]65)C2)C1`
Reply text: 58

Inquiry: Give IC50 for `CNCCCOc1cc(F)c(-c2c(Cl)nc(-c3ccccn3)nc2N[C@@H](C)C(F)(F)F)c(F)c1`
Reply text: 21

Inquiry: Give IC50 for `CNCCCOc1cc(F)c(-c2c(Cl)nc(-n3cccn3)nc2N[C@@H](C)C(F)(F)F)c(F)c1`
Reply text: 32

Inquiry: Give IC50 for `CN(C)CCCOc1cc(F)c(-c2c(Cl)nc(-c3cnccn3)nc2NCC(F)(F)F)c(F)c1`
Reply text: 24

Inquiry: Give IC50 for `CNCCCOc1cc(F)c(-c2c(Cl)nc(-c3cnccn3)nc2N[C@@H](C)C(F)(F)F)c(F)c1`
Reply text: 24

###

- Protocol Text: Metabolic stability in female nude mouse liver microsomes at 1 uM after 30 mins
- Type: ADME, Microsome
Attribute Measured: half-life at 1 µM

Inquiry: Give half-life at 1 µM for `CNCCCOc1cc(F)c(-c2c(Cl)nc(-c3cnccn3)nc2N[C@@H](C)C(F)(F)F)c(F)c1`
Reply text: > 1 h

###

- Protocol Text: Metabolic stability in male Sprague-Dawley rat liver microsomes at 1 uM after 30 mins
- Format: ADME, Microsome
Attribute Measured: half-life at 1 µM

Inquiry: Give half-life at 1 µM for `CNCCCOc1cc(F)c(-c2c(Cl)nc(-c3cnccn3)nc2N[C@@H](C)C(F)(F)F)c(F)c1`
Reply text: > 1 h

###

- Protocol Text: Volume of distribution in rat
- Format: ADME, organism-based
- Cond: in vivo
Attribute Measured: Vd (L/kg)
Kindly provide the numeric value in L/kg only, without the unit symbol.

Inquiry: Give Vd for `CNCCCOc1cc(F)c(-c2c(Cl)nc(-c3cnccn3)nc2N[C@@H](C)C(F)(F)F)c(F)c1`
Reply text: 14

###

- Protocol Text: Clearance in rat
- Format: ADME, organism-based
- Cond: in vivo
Attribute Measured: clearance (mL/min/kg)
Kindly provide the numeric value in mL/min/kg only, without the unit symbol.

Inquiry: Give clearance for `CNCCCOc1cc(F)c(-c2c(Cl)nc(-c3cnccn3)nc2N[C@@H](C)C(F)(F)F)c(F)c1`
Reply text: 21

###

- Tested on: COLO 205
- Protocol Text: Antiproliferative activity against human COLO205 cells after 24 hrs by MTS assay
- Assay type: functional, cell-based
- Cond: Homo sapiens, COLO 205, 24 h
Exercise: state measured IC50 for each of the compounds provided.
Kindly provide the numeric value in nM only, without the unit symbol.

Inquiry: Give IC50 for `CN(C)CCCOc1cc(F)c(-c2c(Cl)nc(-c3ncccn3)nc2NCC(F)(F)F)c(F)c1`
Reply text: 49

Inquiry: Give IC50 for CC[C@]1(O)C[C@H]2CN(CCc3c([nH]c4ccccc34)[C@@](C(=O)OC)(c3cc4c(cc3OC)N(C=O)[C@H]3[C@@](O)(C(=O)OC)[C@H](OC(C)=O)[C@]5(CC)C=CCN6CC[C@]43[C@@H]65)C2)C1 [VINCRISTINE]
Reply text: 2.6

Inquiry: Give IC50 for `CNCCCOc1cc(F)c(-c2c(Cl)nc(-c3ccccn3)nc2N[C@@H](C)C(F)(F)F)c(F)c1`
Reply text: 5.2

###

- Protocol Text: Metabolic stability in male Beagle dog liver microsomes at 1 uM after 30 mins
- Type: ADME, Canis lupus familiaris, Microsome
Attribute Measured: half-life at 1 µM

Inquiry: Give half-life at 1 µM for `CNCCCOc1cc(F)c(-c2c(Cl)nc(-c3cnccn3)nc2N[C@@H](C)C(F)(F)F)c(F)c1`
Reply text: > 60 min

###

Exercise: state measured IC50 for each of the molecules provided.
- Protocol Text: Antiproliferative activity against human KBV1 cells after 3 days by SRB assay
- Type: functional, cell-based
- Cond: KB-V1, 72 h
Kindly provide the numeric value in nM only, without the unit symbol.

Inquiry: Give IC50 for `CN(C)CCCOc1cc(F)c(-c2c(Cl)nc(-c3cnccn3)nc2NCC(F)(F)F)c(F)c1`
Reply text: 99

Inquiry: Give IC50 for `CC[C@]1(O)C[C@H]2CN(CCc3c([nH]c4ccccc34)[C@@](C(=O)OC)(c3cc4c(cc3OC)N(C=O)[C@H]3[C@@](O)(C(=O)OC)[C@H](OC(C)=O)[C@]5(CC)C=CCN6CC[C@]43[C@@H]65)C2)C1`
Reply text: 2040

Inquiry: Give IC50 for `CNCCCOc1cc(F)c(-c2c(Cl)nc(-n3cccn3)nc2N[C@@H](C)C(F)(F)F)c(F)c1`
Reply text: 569

Inquiry: Give IC50 for `CNCCCOc1cc(F)c(-c2c(Cl)nc(-c3ccccn3)nc2N[C@@H](C)C(F)(F)F)c(F)c1`
Reply text: 423

Inquiry: Give IC50 for `CNCCCOc1cc(F)c(-c2c(Cl)nc(-c3cnccn3)nc2N[C@@H](C)C(F)(F)F)c(F)c1`
Reply text: 405

Inquiry: Give IC50 for `CC(=O)O[C@H]1C(=O)[C@@]2(C)[C@H]([C@H](OC(=O)c3ccccc3)[C@]3(O)C[C@H](OC(=O)[C@H](O)[C@@H](NC(=O)c4ccccc4)c4ccccc4)C(C)=C1C3(C)C)[C@]1(OC(C)=O)CO[C@@H]1C[C@@H]2O`
Reply text: 2010
